Biological target: T1, alpha-s1 casein from Bos taurus
T1 chain: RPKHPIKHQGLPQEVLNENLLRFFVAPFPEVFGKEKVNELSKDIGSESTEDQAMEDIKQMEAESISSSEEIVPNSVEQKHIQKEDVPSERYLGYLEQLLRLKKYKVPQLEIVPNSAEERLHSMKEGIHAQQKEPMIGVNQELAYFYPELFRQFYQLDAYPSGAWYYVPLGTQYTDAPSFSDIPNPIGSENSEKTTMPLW
QUANTITY MEASURED: small, 6 hours, 11° C. (Volume)
Express your answer in Volume, writing the number without its unit.

Consider the protein bovine chymosin B variant #74 (A51V, K221M) (protein) GEVASVPLTNYLDSQYFGKIYLGTPPQEFTVLFDTGSSDFWVPSIYCKSNVCKNHQRFDPRKSSTFQNLGKPLSIHYGTGSMQGILGYDTVTVSNIVDIQQTVGLSTQEPGDVFTYAEFDGILGMAYPSLASEYSIPVFDNMMNRHLVAQDLFSVYMDRNGQESMLTLGAIDPSYYTGSLHWVPVTVQQYWQFTVDSVTISGVVVACEGGCQAILDTGTSMLVGPSSDILNIQQAIGATQNQYGEFDIDCDNLSYMPTVVFEINGKMYPLTPSAYTSQDQGFCTSGFQSENHSQKWILGDVFIREYYSVFDRANNLVGLAKAI and give its measured small, 6 hours, 11° C.. 0
